- Test system: MCF7
- ASSAY DETAILS: Antiproliferative activity against human MCF7 cells after 5 days by coulter counter analysis
- Type: functional, cell-based
- RECORDED CONDITIONS: MCF7, 120 h
Please provide measured IC50 for the entries that follow.
Answers are plain numbers, in nM.

Query: Using the record for C[C@]12CC[C@@H]3c4ccc(B(O)O)cc4C[C@@H](CCCCCCCCC[S+]([O-])CCCC(F)(F)C(F)(F)F)[C@H]3[C@@H]1CC[C@@H]2O (some centres not stated) [ZB-716] , report its IC50.
Reply: 3.2

# evaluate next
Query: Would you mind telling me what IC50 value was observed for C[C@]12CC[C@@H]3c4ccc(O)cc4C[C@@H](CCCCCCCCC[S+]([O-])CCCC(F)(F)C(F)(F)F)[C@H]3[C@@H]1CC[C@@H]2O (some centres not stated) [FULVESTRANT] ?
Reply: 1.5

====

- ASSAY DETAILS: AUC in C57BL/6 mouse at 8.3 mg/kg, sc by HPLC-MS/MS analysis
- Type: ADME, organism-based
- RECORDED CONDITIONS: in vivo
QUANTITY: AUC (ng·h/mL)
Give bare numbers, in ng·h/mL.

Query: I have this compound here, C[C@]12CC[C@@H]3c4ccc(O)cc4C[C@@H](CCCCCCCCC[S+]([O-])CCCC(F)(F)C(F)(F)F)[C@H]3[C@@H]1CC[C@@H]2O (stereo partly specified) , and I need its recorded AUC.
Reply: 158

All values here come from ChEMBL document CHEMBL4428065.
